Test system: NIH3T3
Assay: Cytotoxic Profiling of Annotated Libraries Using Quantitative High-Throughput Screening (AID 1296008); further: nearly all actives have a fitted effect of over 60% in size
Conditions: Five cell lines viability, CellTiter-Glo ATP luminescence, 48-72 h; hits give low values
Records with an inconclusive call do not appear.
Criterion: max response strictly less than -20%. Met: t. Not met: f.

Worked examples, 5 molecules total:
Molecule	Assigned category
COc1c2occc2c(OC)c2c(=O)cc(C)oc12	f
CC/C(=C(/CC)c1ccc(O)cc1)c1ccc(O)cc1	t
CN(C)CCOc1ccccc1Cc1ccccc1	f
CC[N+](CC)(CCNC(=O)C(=O)NCC[N+](CC)(CC)Cc1ccccc1Cl)Cc1ccccc1Cl	f
C[C@H](CCC(=O)O)[C@H]1CC[C@H]2[C@@H]3C(=O)C[C@@H]4CC(=O)CC[C@]4(C)[C@H]3CC(=O)[C@]12C	f

Lab note: confirm whether the reported max response for this molecule is below -20%, equality not counting. molecule: `COc1ccc(/C=C/C(=O)c2ccc(OC)cc2OC)cc1` f

Lab note: confirm whether the reported max response for this molecule is below -20%, equality not counting. molecule: COc1cc2c(cc1OC)C(=O)C(CC1CCN(Cc3ccccc3)CC1)C2 (stereo unspecified) f

Lab note: confirm whether the reported max response for this molecule is below -20%, equality not counting. molecule: `OC(CCN1CCCCC1)(c1ccccc1)c1ccccc1` f

Lab note: confirm whether the reported max response for this molecule is below -20%, equality not counting. molecule: `CN(C)CC/C=C1/c2ccccc2COc2ccc(CC(=O)O)cc21` f

Lab note: confirm whether the reported max response for this molecule is below -20%, equality not counting. molecule: `Oc1ccc(Cl)cc1Sc1cc(Cl)ccc1O` t

----------
Test system: C33A
Assay: Primary qHTS to identify gynecologic anti-cancer compounds using libraries of approved drugs and bioactive compounds (AID 1345084); further: nearly all actives have a fitted effect of over 55% in size
Conditions: Gynecologic cancer cell panel viability, ATPlite luminescence, 48 h; series mostly up to 57.5 µM
Inconclusive results are not listed. Activity calls are given as the source filed them. Calls follow the shape of the dose curve; as a rule, active = well fitted cell-killing curve with a large enough effect; inconclusive = small, poorly fitted or top-dose-only effect, or effect the other way; inactive = flat fitted curve, though single readings scatter.
Parameter call: string, one of y = active, n = inactive

Worked examples, 8 compounds total:
Compound	Assigned category
Cc1cc(N)c2cc(NC(=O)Nc3ccc4nc(C)cc(N)c4c3)ccc2n1	n
O=C1c2ccccc2C(=O)C1c1ccccc1	n
COC1=CC(=O)C[C@@H](C)[C@]12Oc1c(Cl)c(OC)cc(OC)c1C2=O	n
COc1cc2c(cc1OC)[C@@H]1CC(=O)[C@@H](CC(C)C)CN1CC2	n
C[C@]12CCC(=O)C=C1CC[C@H]1[C@@H]3CC[C@](O)(C(=O)CO)[C@@]3(C)C[C@H](O)[C@@]12F	n
CCCCOc1ccc(OCCCN2CCOCC2)cc1	n
Cc1c(C)n(CCN(C)C)c2ccc(C(=O)OCCN(C)C)cc12	n
CN1CCC(=C2c3ccccc3Sc3ccccc32)CC1	n

Identify the outcome logged in this assay for the compound shown: `CC(=O)Oc1ccc(C(=C2CCCCC2)c2ccc(OC(C)=O)cc2)cc1` n

Identify the outcome logged in this assay for the compound shown: `CCCCS(=O)(=O)N[C@@H](Cc1ccc(OCCCCC2CCNCC2)cc1)C(=O)O` n

Identify the outcome logged in this assay for the compound shown: `CN(C)C(=S)SC(=S)N(C)C` y

Identify the outcome logged in this assay for the compound shown: `CC(O)(P(=O)(O)O)P(=O)(O)O` n

Identify the outcome logged in this assay for the compound shown: `COc1cccc(OC)c1C(=O)N[C@@H]1C(=O)N2[C@@H]1SC(C)(C)[C@@H]2C(=O)O` n

Identify the outcome logged in this assay for the compound shown: CC(O)C(=O)O (stereo not drawn) n

Identify the outcome logged in this assay for the compound shown: `CCOC(=O)/C=C(C)/C=C/C=C(C)/C=C/c1c(C)cc(OC)c(C)c1C` n

Identify the outcome logged in this assay for the compound shown: `CC[C@@H](CO)NCCN[C@@H](CC)CO` n

Identify the outcome logged in this assay for the compound shown: `O=C(COc1ccc(Cl)cc1)N1CCN(Cc2ccc3c(c2)OCO3)CC1` n

Identify the outcome logged in this assay for the compound shown: `O=C(CCCN1CCC(O)(c2ccc(Br)cc2)CC1)c1ccc(F)cc1` n
